The measured values listed here are drawn from patent US20250250357A1.

Record form. Attribute: competition rate. Fill in for each entry.
# Target Under Test: T1, human MSLN-FL-his protein (human, UniProt Q13421 296-580)
# T1 construct: made in HEK293E cells, purified on nickel column; also called hMSLN-FL-his; human MSLN full-length protein; not shown: His tag
# T1 sequence (Q13421 other isoform, or with tags, fused parts or gaps): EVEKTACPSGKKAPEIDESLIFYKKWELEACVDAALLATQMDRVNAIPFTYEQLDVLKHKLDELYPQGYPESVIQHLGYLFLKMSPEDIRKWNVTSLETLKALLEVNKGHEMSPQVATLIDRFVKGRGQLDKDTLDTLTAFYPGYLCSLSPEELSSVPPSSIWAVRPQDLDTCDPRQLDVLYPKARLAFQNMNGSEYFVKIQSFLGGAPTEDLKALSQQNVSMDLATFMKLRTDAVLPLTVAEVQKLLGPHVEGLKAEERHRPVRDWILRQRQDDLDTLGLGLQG
# Assay Details: competitive ELISA; row Tab107 (conformation); note: test concentration or dose not given here
Quick reminder: number only, in %, skip the unit.

Item under review: S009-F1.56.1 (antibody, human IgG1, kappa, V domains shown, human-murine chimeric antibody, human IgG1/kappa constant regions) VH: EVQLQQSGAEVVKPGASVKLSCTASGFNIRHTYMHWVKQRPEQGLEWIGRIDPANGNTEYDPKFQGKATITADTSSNTAYLQLSSLTSEDTAVYYCARDGWYIDVWGAGTTVTVSS VL: DIVMSQSPSSLAVSVGEKVTMSCKSSQSLLYSNNQKNYLAWYQQKPGQSPKLLIYWASTRESGVPDRFTGSGSGTDFTLTISSVKAEDLAVYYCQRYYSYPWTFGGGTKLEIKR . Reported competition rate?
-35

S009-F1.2.12 (antibody, human IgG1, kappa, V domains shown, human-murine chimeric antibody, human IgG1/kappa constant regions) VH: QVQLKQTGPGLVQPSQSLSITCTVSGFSLTNYAVHWVRQSPGKGLEWLGVIWSGGATDYNTVFISRLSISKDNSKSQVFFKVNSLQVDDTAIYYCARTGSGYAMDYWGQGTSVTVSS VL: DIVLTQSPATLSVTPGDRVSLSCRTSHNVNTYLHWYQQKSHESPRLLIKYASQSISEIPSRFSGSGSGTNFTLSINSVETEDFGMYFCHQTNRWPLTFGAGTKLELKR , same question.
29

S009-F1.35.24 (antibody, human IgG1, kappa, V domains shown, human-murine chimeric antibody, human IgG1/kappa constant regions) VH: EVQLQQSEPELVKPGASVRISCKASGYSFTDYYMHWVKQSPENRLEWIGEINPSTGGTSYNPKFKDKATLTVDKSSSTAYMQLKSLTSEESAVYYCTRYHYYGSSSYVMDYWGQGTSVTVSS VL: QIVLTQSPAILSASPGERVTMTCSASSSVYHMHWFQQKSGTSPKRWVYDTSKLASGVPARFSGSGSGTSYSLTISSMEAEDAATYYCQHWRTNPLTFGAGTKLELKR , same question.
36
